- Tested on: Toxoplasma gondii RH-2F tachyzoites
- experiment_description: microbe, parasite or virus in culture
- cond: 72 h, read-out: Parasite inhibition (%) mean, preliminary screen of compound library, mean
Structures can show the parent of a compound that is named as a salt.
I'd be grateful if you could share measured inhibition of growth at 5 µM for these entries.
Answers are plain numbers, in %.

Input: For Toxoplasma gondii RH-2F tachyzoites, provide inhibition of growth at 5 µM of CCOC(=O)N1c2ccc(C(F)(F)F)cc2[C@H](N(Cc2cc(C(F)(F)F)cc(C(F)(F)F)c2)C(=O)OC)C[C@H]1CC [Torcetrapib (CP-529414)] please.
Output: 22.1

Input: API: value(readout= inhibition of growth at 5 µM, system= Toxoplasma gondii RH-2F tachyzoites, query= CC(C)c1nc(N(C)S(C)(=O)=O)nc(-c2ccc(F)cc2)c1/C=C/[C@@H](O)C[C@@H](O)CC(=O)O [Rosuvastatin calcium (Crestor)] )
Output: -0.1

Input: Request body: readout inhibition of growth at 5 µM, system Toxoplasma gondii RH-2F tachyzoites, query CC(C)N(CCC(=O)c1ccc2ccccc2c1)Cc1ccccc1 [ZM 39923 HCl] . Return the value.
Output: 13.9

Input: Form: Entry = O=C(O)Cc1ccccc1Nc1c(Cl)cccc1Cl [Diclofenac Diethylamine] | System = Toxoplasma gondii RH-2F tachyzoites | inhibition of growth at 5 µM = ____
Output: -21.2

Input: Requested read-out inhibition of growth at 5 µM, target or system Toxoplasma gondii RH-2F tachyzoites, entry CCNC1(C(N)=O)CCN(c2ncnc3c2nc(-c2ccccc2Cl)n3-c2ccc(Cl)cc2)CC1 [Otenabant (CP-945598) HCl]
Output: 0.3

Batch of 3 compounds: report inhibition of growth at 5 µM for each.
1. C[C@@H](NCCCc1cccc(C(F)(F)F)c1)c1cccc2ccccc12 [AMG-073 HCl (Cinacalcet hydrochloride)]
2. Cc1cc(C2CCCCC2)n(O)c(=O)c1 [Ciclopirox (Penlac)]
3. CNCc1cc(-c2ccccc2F)n(S(=O)(=O)c2cccnc2)c1 [TAK-438]

Output:
1. 2.4
2. 33.4
3. -9.6

// each listed compound needs a value for inhibition of growth at 5 µM
1. CCCCCCCCOc1ccccc1C(=O)Nc1ccc(C(=O)OCC[N+](C)(CC)CC)cc1 [Otilonium Bromide]
2. Cn1c(CNc2ccc(C(=N)N)cc2)nc2cc(C(=O)N(CCC(=O)O)c3ccccn3)ccc21 [BIBR 953 (Dabigatran etexilate, Pradaxa)]
3. COc1cccc(Nc2c(C(N)=O)cnc3c(C)cc(S(=O)(=O)c4cccc(C(=O)N(C)C)c4)cc23)c1 [GSK256066]
4. CCN1C[C@@H](C)n2c(c(O)c3c(=O)n(Cc4ccc(F)c(Cl)c4)nc(C(=O)NC)c32)C1=O [MK-2048]
5. Nc1nc2c(ncn2COCCO)c(=O)[nH]1 [Acyclovir (Aciclovir)]

Output:
0.7
0.3
18.7
1
-55.5

# batch: return inhibition of growth at 5 µM for each of the 3 compounds below
1. Cc1cc(C#N)cc(C)c1Oc1nc(Nc2ccc(C#N)cc2)nc(N)c1Br [Etravirine (TMC125)]
2. Cn1cc(-c2[nH]c3cc(NC(=O)[C@H](N)C4CCCCC4)cc4c3c2C=NNC4=O)cn1 [PF 477736]
3. Nc1nc(=O)c2c([nH]1)NC[C@H](CNc1ccc(C(=O)N[C@@H](CCC(=O)O)C(=O)O)cc1)N2C=O [Calcium levofolinate (Calcium Folinate)]

Output:
0
-0.5
0.1

// each compound listed below needs its inhibition of growth at 5 µM
1. CC1=C(C(=O)OC(C)C)C(c2cccc([N+](=O)[O-])c2)C(C(=O)OC2CN(C(c3ccccc3)c3ccccc3)C2)=C(N)N1 (stereo not shown) [Azelnidipine]
2. CC1(C)CC(=O)c2c(C(F)(F)F)nn(-c3ccc(C(N)=O)c(N[C@H]4CC[C@H](O)CC4)c3)c2C1 [SNX-2112]
3. Cn1cc(-c2ccc3ncc(Cc4ccc5ncccc5c4)n3n2)cn1 [NVP-BVU972]

Output:
[15.7, 9.9, 38.8]

Answer for every listed entry: what is its inhibition of growth at 5 µM? The entries follow.
1. CCCNS(=O)(=O)Nc1ncnc(OCCOc2ncc(Br)cn2)c1-c1ccc(Br)cc1 [Macitentan]
2. CC(C)(CO)c1cc2cc(NC(=O)C3(c4ccc5c(c4)OC(F)(F)O5)CC3)c(F)cc2n1C[C@@H](O)CO [VX-661]
3. O=C(Nc1cccc(Cl)c1)c1ccccn1 [VU 0364770]
4. COc1ccc(COc2cc3oc(=O)c4cc(C(C)O)ccc4c3cc2OC)cc1 (stereo not shown) [Palomid 529]
5. O=C(Nc1ccc(S(=O)(=O)Nc2ccccc2Cl)c(Cl)c1)c1ccccn1 [VU 0364439]

Output:
1. 12.3
2. 0.6
3. 1.8
4. -14.6
5. -0.9

For every item in the list below, what is its measured inhibition of growth at 5 µM?
1. COc1ccccc1N1CCN(CCN(C(=O)C2CCCCC2)c2ccccn2)CC1 [WAY-100635 HCl]
2. c1cncc(CN2CCC(n3ncc4c(N5CCOCC5)nc(-c5ccc6[nH]ccc6c5)nc43)CC2)c1 [WAY-600]
3. CO/N=C(\C(=O)N[C@@H]1C(=O)N2C(C(=O)O)=C(Cn3ccc(=N)n3CCO)CS[C@H]12)c1csc(N)n1 [Cefoselis sulfate]
4. CN1CCN(c2nc3ccccc3nc2Cl)CC1 [VUF 10166]
5. S=C=Nc1cccc(NC(=S)NCCCCNC(=S)Nc2cccc(N=C=S)c2)c1 [MRS 2578]

Output:
1: -0.7; 2: 35.5; 3: 12.1; 4: 0.4; 5: 0.2

Look at each compound and report its inhibition of growth at 5 µM.
1. COc1cc2ncnc(Nc3ccc(F)c(Cl)c3)c2cc1NC(=O)/C=C/CN1CCCCC1 [Dacomitinib (PF299804,PF-00299804)]
2. O=C(O)C(O)Cc1ccc(O)c(O)c1 (stereo not shown) [Sodium Danshensu]

Output:
1. 0.4
2. 2.2
